Ref: ChEMBL document CHEMBL4732149

Test system: SH-SY5Y
Test: Cytotoxicity against human SH-SY5Y cells assessed as reduction in cell viability at 10 to 50 uM measured after 24 hrs by MTT assay
Type: cell-based
Settings: dose 10-50 µM
measurement label: Activity

NC1=NN(c2ccccc2)C(=O)C12[C@@H](c1ccc(Cl)cc1)c1c([nH]n(-c3ccccc3)c1=O)N[C@H]2c1ccc(Cl)cc1 (stereo partly drawn) : Non-Toxic
COc1ccc([C@H]2c3c([nH]n(-c4ccccc4)c3=O)N[C@@H](c3ccc(OC)cc3)C23C(=O)N(c2ccccc2)N=C3N)cc1 (stereo partly drawn) : Non-Toxic
NC1=NN(c2ccccc2)C(=O)C12[C@@H](c1cccc([N+](=O)[O-])c1)c1c([nH]n(-c3ccccc3)c1=O)N[C@H]2c1cccc([N+](=O)[O-])c1 (stereo partly drawn) : Non-Toxic

---

Test: Cytotoxicity against human SH-SY5Y cells assessed as cell viability at 50 uM measured after 24 hrs by MTT assay relative to control
Type: cell-based
Details: read-out: Activity
measurement label: viability at 24 h, 50 µM (%)
Respond with the bare value in %.

Q: What measured viability at 24 h, 50 µM goes with NC1=NN(c2ccccc2)C(=O)C12[C@@H](c1ccc(Cl)cc1)c1c([nH]n(-c3ccccc3)c1=O)N[C@H]2c1ccc(Cl)cc1 (stereo partly specified) ?
Result: 84.9

---

Tested on: SH-SY5Y
Test: Neuroprotective activity against […]-induced cell death in human SH-SY5Y cells at 10 to 50 uM preincubated for 1 hr followed by […] stimulation and measured after 24 hrs by MTT assay relative to control
Type: functional
Details: dose 10-50 µM, time 25 hrs
Give y when the value for Activity is at least 30%. Give n when it is less.

A selection of reference data follows.
NC1=NN(c2ccccc2)C(=O)C12[C@@H](c1cccc([N+](=O)[O-])c1)c1c([nH]n(-c3ccccc3)c1=O)N[C@H]2c1cccc([N+](=O)[O-])c1 (stereo not given in full) : n
Cc1ccc([C@H]2c3c([nH]n(-c4ccccc4)c3=O)N[C@@H](c3ccc(C)cc3)C23C(=O)N(c2ccccc2)N=C3N)cc1 (stereo not given in full) : n
NC1=NN(c2ccccc2)C(=O)C12[C@@H](c1ccccc1)c1c([nH]n(-c3ccccc3)c1=O)N[C@H]2c1ccccc1 (stereo not given in full) : n

Q: Has COc1ccc([C@H]2c3c([nH]n(-c4ccccc4)c3=O)N[C@@H](c3ccc(OC)cc3)C23C(=O)N(c2ccccc2)N=C3N)cc1 (stereo not given in full) a recorded Activity greater than or equal to 30%?
Result: n

Q: Has NC1=NN(c2ccccc2)C(=O)C12[C@@H](c1cccc(Br)c1)c1c([nH]n(-c3ccccc3)c1=O)N[C@H]2c1cccc(Br)c1 (stereo in doubt; 3c-2) a recorded Activity greater than or equal to 30%?
Result: y
